Where do these numbers come from? They come from PubChem BioAssay AID2060894.

What viability, T/C was measured for each of the following?
# Test system: K12877-001-R-J1-PDC complex spheroid viability
# experiment.summary: Anticancer human tumor K12877-001-R-J1-PDC patient-derived lung adenocarcinoma cell line growth inhibition [RAS]
# measurement.parameters: second compound 0.316 µM; first compound 0.03 µM; hits give low values
One number for each entry, in %.

{"molecule": "CCc1c2c(nc3ccc(O)cc13)-c1cc3c(c(=O)n1C2)COC(=O)[C@]3(O)CC + C#Cc1c(F)ccc2cc(O)cc(-c3ncc4c(N5CC6CCC(C5)N6)nc(OCC56CCCN5CC(F)C6)nc4c3F)c12", "viability, T/C / %": 4.86}

For each listed entry, give its viability, T/C.
1. CCc1c2c(nc3ccc(O)cc13)-c1cc3c(c(=O)n1C2)COC(=O)[C@]3(O)CC + C=CC(=O)N1CCN(c2nc(OCC3CCCN3C)nc3c(F)c(-c4nc(N)cc(C)c4C(F)(F)F)c(Cl)cc23)C(C)C1
2. CC1(C)CCC(Nc2ncc(C(F)(F)F)c(-c3c[nH]c4c(P(C)(C)=O)c(C#N)ccc34)n2)CN1 (centres undefined) + C#Cc1c(F)ccc2cc(O)cc(-c3ncc4c(N5CC6CCC(C5)N6)nc(OCC56CCCN5CC(F)C6)nc4c3F)c12
3. CC1(C)CCC(Nc2ncc(C(F)(F)F)c(-c3c[nH]c4c(P(C)(C)=O)c(C#N)ccc34)n2)CN1 (centres undefined) + C=CC(=O)N1CCN(c2nc(OCC3CCCN3C)nc3c(F)c(-c4nc(N)cc(C)c4C(F)(F)F)c(Cl)cc23)C(C)C1

RESULT:
[3.82, 63.3, 54.8]

* * *

# System: K12877-001-R-J1-PDC complex spheroid viability
# experiment.summary: Anticancer human tumor K12877-001-R-J1-PDC cell line growth inhibition [RAS]; active = viability on the fitted dose curve at most 10% of control; inactive = the rest;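 also: tumour cells co-cultured with HUVEC and mesenchymal stem cells in spheroids; spheroids exposed to agents for one week before readout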
# measurement.parameters: second compound 0.316 µM; first compound 0.316 µM
Respond only with the outcome that fits, drawn from True for active, False for inactive

Some solved entries appear below for comparison.
{"compound": "O=C(c1ccc(F)c(F)c1Nc1ccc(I)cc1F)N1CC(O)([C@@H]2CCCCN2)C1 + C#Cc1c(F)ccc2cc(O)cc(-c3ncc4c(N5CC6CCC(C5)N6)nc(OCC56CCCN5CC(F)C6)nc4c3F)c12", "assay.target": "K12877-001-R-J1-PDC complex spheroid viability", "group": "False"}
{"compound": "CCC(CC)c1cc(NC2CCC(N)C2)n2nccc2n1 (configuration not stated) + C#Cc1c(F)ccc2cc(O)cc(-c3ncc4c(N5CC6CCC(C5)N6)nc(OCC56CCCN5CC(F)C6)nc4c3F)c12", "assay.target": "K12877-001-R-J1-PDC complex spheroid viability", "group": "False"}
{"compound": "CC(=O)OC12COC1CC(O)C1(C)C(=O)C(O)C3=C(C)C(OC(=O)C(O)C(NC(=O)OC(C)(C)C)c4ccccc4)CC(O)(C(OC(=O)c4ccccc4)C21)C3(C)C (configuration not stated) + C#Cc1c(F)ccc2cc(O)cc(-c3ncc4c(N5CC6CCC(C5)N6)nc(OCC56CCCN5CC(F)C6)nc4c3F)c12", "assay.target": "K12877-001-R-J1-PDC complex spheroid viability", "group": "True"}
{"compound": "CC(Nc1ccc2c(c1)OCCn1cc(N3C(=O)OCC3C(F)F)nc1-2)C(N)=O (configuration not stated) + C=CC(=O)N1CCN(c2nc(OCC3CCCN3C)nc3c(F)c(-c4nc(N)cc(C)c4C(F)(F)F)c(Cl)cc23)C(C)C1", "assay.target": "K12877-001-R-J1-PDC complex spheroid viability", "group": "False"}

QUERY: Call for entry CC(C)NCC(C(=O)N1CCN(c2ncnc3c2C(C)CC3O)CC1)c1ccc(Cl)cc1 (configuration not stated) + C=CC(=O)N1CCN(c2nc(OCC3CCCN3C)nc3c(F)c(-c4nc(N)cc(C)c4C(F)(F)F)c(Cl)cc23)C(C)C1 :
RESULT: False

QUERY: Call for entry CC1(O)CCCC1n1c(=O)c(C(F)F)cc2cnc(NC3CCN(S(C)(=O)=O)CC3)nc21 (configuration not stated) + C#Cc1c(F)ccc2cc(O)cc(-c3ncc4c(N5CC6CCC(C5)N6)nc(OCC56CCCN5CC(F)C6)nc4c3F)c12 :
RESULT: False

QUERY: Call for entry Nc1ccn(C2OC(CO)C(O)C2(F)F)c(=O)n1 (configuration not stated) + C#Cc1c(F)ccc2cc(O)cc(-c3ncc4c(N5CC6CCC(C5)N6)nc(OCC56CCCN5CC(F)C6)nc4c3F)c12 :
RESULT: True

QUERY: Call for entry Cc1nc(N2CCC3(CC2)COC(C)C3N)c(CO)nc1Sc1ccnc(N)c1Cl (configuration not stated) + C=CC(=O)N1CCN(c2nc(OCC3CCCN3C)nc3c(F)c(-c4nc(N)cc(C)c4C(F)(F)F)c(Cl)cc23)C(C)C1 :
RESULT: False

QUERY: Call for entry NC1c2ccccc2OC12CCN(c1cnc3c(N4CCCc5ncccc54)n[nH]c3n1)CC2 (configuration not stated) + C#Cc1c(F)ccc2cc(O)cc(-c3ncc4c(N5CC6CCC(C5)N6)nc(OCC56CCCN5CC(F)C6)nc4c3F)c12 :
RESULT: False
